target: KAT6A (Homo sapiens (Human), UniProt Q92794); assay: KAT assay (SAMDI mass spectrometry), KAT6A; format: biochemical; settings: read-out: KAT6a Ki at 10 μM AcCoA; 10 μM AcCoA;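 also: Baculovirus-expressed KAT6A acetylating histone H3 (1-21) peptide (2 µM), 30-60 min at room temperature, % product conversion fitted to Morrison equation for tight-binding competitive inhibitors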
Sequence (Q92794 whole entry): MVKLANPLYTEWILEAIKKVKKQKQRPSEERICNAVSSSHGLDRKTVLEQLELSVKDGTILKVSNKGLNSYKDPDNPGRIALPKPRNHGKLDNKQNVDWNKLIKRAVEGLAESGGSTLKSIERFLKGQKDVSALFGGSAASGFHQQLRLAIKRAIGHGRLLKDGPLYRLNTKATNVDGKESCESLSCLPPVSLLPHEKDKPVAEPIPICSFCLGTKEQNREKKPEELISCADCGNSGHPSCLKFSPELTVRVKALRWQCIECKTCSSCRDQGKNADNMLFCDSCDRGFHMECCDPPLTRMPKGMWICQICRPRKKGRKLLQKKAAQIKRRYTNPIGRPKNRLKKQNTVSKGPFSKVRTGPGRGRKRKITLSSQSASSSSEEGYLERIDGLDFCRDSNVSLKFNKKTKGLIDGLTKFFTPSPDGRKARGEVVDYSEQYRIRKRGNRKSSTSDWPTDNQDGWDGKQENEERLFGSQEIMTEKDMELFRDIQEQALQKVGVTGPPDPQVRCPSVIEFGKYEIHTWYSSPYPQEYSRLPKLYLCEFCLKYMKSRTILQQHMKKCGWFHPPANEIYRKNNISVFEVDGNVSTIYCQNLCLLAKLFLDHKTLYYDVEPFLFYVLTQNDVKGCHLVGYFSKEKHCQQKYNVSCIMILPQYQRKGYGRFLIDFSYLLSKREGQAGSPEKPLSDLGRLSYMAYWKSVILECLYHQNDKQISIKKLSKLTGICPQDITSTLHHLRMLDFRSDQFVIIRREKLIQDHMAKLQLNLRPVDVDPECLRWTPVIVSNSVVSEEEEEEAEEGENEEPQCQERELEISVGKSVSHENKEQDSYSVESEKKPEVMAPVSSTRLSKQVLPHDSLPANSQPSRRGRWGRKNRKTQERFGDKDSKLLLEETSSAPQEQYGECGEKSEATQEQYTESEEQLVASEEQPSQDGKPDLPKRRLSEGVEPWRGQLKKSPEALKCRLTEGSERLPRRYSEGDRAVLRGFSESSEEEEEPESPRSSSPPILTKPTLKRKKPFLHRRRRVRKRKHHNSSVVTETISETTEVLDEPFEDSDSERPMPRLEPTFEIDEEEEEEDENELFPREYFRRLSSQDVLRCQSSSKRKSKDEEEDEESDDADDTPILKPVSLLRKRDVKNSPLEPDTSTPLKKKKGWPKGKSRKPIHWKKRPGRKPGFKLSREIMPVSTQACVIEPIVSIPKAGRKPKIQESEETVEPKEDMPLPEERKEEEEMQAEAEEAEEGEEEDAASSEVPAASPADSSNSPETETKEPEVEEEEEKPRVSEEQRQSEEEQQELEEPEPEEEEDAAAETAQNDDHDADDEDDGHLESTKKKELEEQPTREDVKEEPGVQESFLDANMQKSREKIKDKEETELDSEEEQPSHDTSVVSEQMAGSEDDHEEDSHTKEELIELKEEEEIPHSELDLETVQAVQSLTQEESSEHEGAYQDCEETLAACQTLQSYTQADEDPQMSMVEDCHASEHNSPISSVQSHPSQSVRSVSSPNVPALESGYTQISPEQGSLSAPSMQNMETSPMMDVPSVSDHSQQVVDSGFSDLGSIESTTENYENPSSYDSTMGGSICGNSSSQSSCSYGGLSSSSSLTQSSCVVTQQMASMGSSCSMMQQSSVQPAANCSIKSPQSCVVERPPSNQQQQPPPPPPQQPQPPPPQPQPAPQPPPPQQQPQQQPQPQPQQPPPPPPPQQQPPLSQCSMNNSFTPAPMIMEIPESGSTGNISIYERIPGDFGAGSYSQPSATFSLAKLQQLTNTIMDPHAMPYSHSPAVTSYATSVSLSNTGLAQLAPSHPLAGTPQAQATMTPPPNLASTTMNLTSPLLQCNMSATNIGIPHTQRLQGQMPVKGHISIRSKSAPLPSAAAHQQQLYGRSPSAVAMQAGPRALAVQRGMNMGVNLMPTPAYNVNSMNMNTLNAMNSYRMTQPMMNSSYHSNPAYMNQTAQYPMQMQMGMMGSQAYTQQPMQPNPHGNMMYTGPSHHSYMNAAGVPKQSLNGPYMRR
pKi: −log10 of the molar value.
Recorded Endpoint: pKi

Here is how some molecules turned out for pKi.
COc1cccc(OC)c1S(=O)(=O)Nc1noc2cc(Cc3cnoc3)cc(OC)c12 = 7.60
COc1cc(Cn2cccn2)cc2onc(NS(=O)(=O)c3c(F)cc(C)cc3F)c12 = 8.41
COc1cc(Cn2cccn2)cc2onc(NS(=O)(=O)c3ccc(C(F)(F)F)cc3)c12 = 7.88
COc1cc(Cn2cccn2)cc2onc(NS(=O)(=O)c3cccc4c(C)ccnc34)c12 = 9.04
COc1cc(Cn2cccn2)cc2onc(NS(=O)(=O)c3ccc(C(F)F)cc3)c12 = 7.92
COc1ccc(C(C)C)cc1S(=O)(=O)Nc1noc2cc(Cn3cccn3)cc(OC)c12 = 9.42

[I] COc1cc(Cn2cccn2)cc2onc(NS(=O)(=O)c3ccc(C)c(F)c3)c12
[II] CCc1nc2cc(S(=O)(=O)Nc3noc4cc(Cn5cccn5)cc(OC)c34)ccc2o1
(Q) Lab note: check whether I or II has the lower measured pKi. In your reply, give the label of the chosen option.
(A) II

[A] CCc1cc(S(=O)(=O)Nc2noc3cc(Cn4cccn4)cc(OC)c23)c(OC)cc1OC
[B] COc1cc(OC)c(S(=O)(=O)Nc2noc3cc(Cn4cccn4)cc(OC4CC4)c23)c(OC)c1
[C] COc1cccc(OC)c1S(=O)(=O)Nc1noc2cc(Cc3cc[nH]n3)cc(OC)c12
[D] COc1cccc(OC)c1S(=O)(=O)Nc1noc2cc(Cn3cccn3)cc(OC3CC3)c12
[E] COC(=O)c1cccc(C)c1S(=O)(=O)Nc1noc2cc(Cn3cccn3)cc(OC)c12
(Q) Please rank these molecules by pKi in descending order. Arrange the labels as the request states and list them.
(A) A, B, D, C, E

Values from patent US11492346B2
